target: NR2B-subtype NMDA receptors (Rattus norvegicus (Rat), UniProt P35439+Q00960)
Sequence (Q00960 27-1482, other chains not shown): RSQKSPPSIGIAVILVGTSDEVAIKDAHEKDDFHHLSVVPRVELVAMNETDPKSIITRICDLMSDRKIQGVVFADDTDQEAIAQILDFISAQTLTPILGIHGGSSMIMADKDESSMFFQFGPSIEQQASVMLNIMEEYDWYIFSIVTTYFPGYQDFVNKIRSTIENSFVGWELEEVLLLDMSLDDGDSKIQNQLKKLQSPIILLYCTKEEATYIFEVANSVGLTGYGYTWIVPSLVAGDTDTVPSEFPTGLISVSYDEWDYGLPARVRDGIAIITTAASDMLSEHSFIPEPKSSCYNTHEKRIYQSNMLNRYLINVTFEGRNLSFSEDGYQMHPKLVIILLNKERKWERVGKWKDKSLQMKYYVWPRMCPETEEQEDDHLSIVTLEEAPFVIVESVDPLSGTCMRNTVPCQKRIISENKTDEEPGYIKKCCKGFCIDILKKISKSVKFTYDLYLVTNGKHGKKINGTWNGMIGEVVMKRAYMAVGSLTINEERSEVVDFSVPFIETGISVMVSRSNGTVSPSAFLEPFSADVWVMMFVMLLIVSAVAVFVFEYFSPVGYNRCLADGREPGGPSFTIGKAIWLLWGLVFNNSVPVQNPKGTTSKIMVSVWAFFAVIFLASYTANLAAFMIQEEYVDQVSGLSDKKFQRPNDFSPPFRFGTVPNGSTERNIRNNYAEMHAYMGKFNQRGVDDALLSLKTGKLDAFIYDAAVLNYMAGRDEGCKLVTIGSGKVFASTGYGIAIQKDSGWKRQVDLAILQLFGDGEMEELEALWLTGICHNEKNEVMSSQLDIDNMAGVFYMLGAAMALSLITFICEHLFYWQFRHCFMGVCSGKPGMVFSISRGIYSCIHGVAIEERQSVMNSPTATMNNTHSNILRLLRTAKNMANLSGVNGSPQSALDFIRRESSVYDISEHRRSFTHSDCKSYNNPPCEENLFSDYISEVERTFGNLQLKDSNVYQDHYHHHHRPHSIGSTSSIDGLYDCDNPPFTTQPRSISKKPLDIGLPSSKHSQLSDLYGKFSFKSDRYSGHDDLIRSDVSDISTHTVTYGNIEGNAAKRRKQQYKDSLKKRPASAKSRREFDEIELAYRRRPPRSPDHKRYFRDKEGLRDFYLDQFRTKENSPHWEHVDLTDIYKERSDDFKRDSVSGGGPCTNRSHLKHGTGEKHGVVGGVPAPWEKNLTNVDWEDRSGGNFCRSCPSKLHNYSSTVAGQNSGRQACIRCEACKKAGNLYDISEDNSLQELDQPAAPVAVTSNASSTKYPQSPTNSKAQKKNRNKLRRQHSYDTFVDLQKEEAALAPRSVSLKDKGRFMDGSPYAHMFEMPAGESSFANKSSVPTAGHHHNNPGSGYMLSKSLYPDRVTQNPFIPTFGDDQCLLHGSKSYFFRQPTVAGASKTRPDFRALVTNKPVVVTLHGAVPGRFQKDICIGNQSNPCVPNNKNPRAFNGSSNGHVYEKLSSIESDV
procedure-summary: Radioligand binding assay (3H Ro 25-6981 competition, forebrain membranes)
experimental-parameters: 3H Ro 25-6981 (4 nM), read-out: NR2B Binding Ki
pKi: −log10 of the molar value.
Outcome label depends on pKi relative to 7: at/above gives y, below gives n.

Asked: Check the entry O=C1C(N2CCC(c3ccc(O)cc3)CC2)CCN1Cc1ccccc1 (centres unmarked) : does pKi equal or exceed 7?
Given back: y

Asked: Check the entry Cc1ccc(CN2CC[C@H](N3CC[C@H](c4ccc(O)c(F)c4)[C@@H](F)C3)C2=O)cc1F : does pKi equal or exceed 7?
Given back: n

Asked: Check the entry Cc1ccc(CN2CC[C@@H](N3CC[C@H](c4ccc(O)c(F)c4)[C@@H](F)C3)C2=O)cc1F : does pKi equal or exceed 7?
Given back: y

Asked: Check the entry O=C1[C@H](N2CC[C@@H](c3ccc(O)c(F)c3)[C@H](F)C2)CCN1Cc1ccc(C(F)F)cc1 : does pKi equal or exceed 7?
Given back: y

Asked: Check the entry O=C1C(N2CCC(c3ccc(O)cc3)CC2)CCN1C1CCc2ccccc21 (centres unmarked) : does pKi equal or exceed 7?
Given back: n

Asked: Check the entry Cc1ccccc1CN1CCC(N2CCC(c3ccc(O)cc3)C(F)(F)C2)C1=O (centres unmarked) [Example 92] : does pKi equal or exceed 7?
Given back: y

Asked: Check the entry O=C1C(N2CCC(c3ccc(O)cc3)CC2)CCN1Cc1ccc(Cl)c(F)c1 (centres unmarked) : does pKi equal or exceed 7?
Given back: y

Asked: Check the entry Cc1ccc(CN2CC[C@@H](N3CC[C@@H](c4ccc(O)c(F)c4)[C@H](F)C3)C2=O)cc1F : does pKi equal or exceed 7?
Given back: y

Asked: Check the entry O=C1C(N2CC[C@@H](c3ccc(O)cc3)[C@H](F)C2)CCN1Cc1ccc(OC(F)F)cc1 (some centres unmarked) : does pKi equal or exceed 7?
Given back: y

Asked: Check the entry O=C1[C@H](N2CC[C@@H](c3ccc(O)cc3)[C@H](F)C2)CCN1Cc1ccc(C(F)(F)F)cc1 : does pKi equal or exceed 7?
Given back: y

Asked: Check the entry O=C1C(N2CC[C@@H](c3ccc(O)cc3)[C@H](F)C2)CCN1Cc1ccc(Cl)c(Cl)c1 (some centres unmarked) : does pKi equal or exceed 7?
Given back: n

Asked: Check the entry O=C1C(N2CCCCC(c3ccc(O)cc3)C2)CCN1Cc1ccc(F)cc1 (centres unmarked) : does pKi equal or exceed 7?
Given back: n

Asked: Check the entry O=C1[C@H](N2CC[C@H](c3ccc(O)cc3)[C@@H](F)C2)CCN1Cc1ccc(F)cc1 : does pKi equal or exceed 7?
Given back: y

Asked: Check the entry O=C1[C@@H](N2CC[C@@H](c3ccc(O)cc3)[C@H](F)C2)CCN1Cc1ccc(Cl)c(F)c1 : does pKi equal or exceed 7?
Given back: n

Asked: Check the entry O=C1C(N2CCC(c3ccc(O)cc3)CC2)CCN1Cc1ccc(F)c(F)c1 (racemic) : does pKi equal or exceed 7?
Given back: y

Asked: Check the entry O=C1[C@@H](N2CCC(c3ccc(O)cc3)CC2)CCN1Cc1ccc(F)cc1 : does pKi equal or exceed 7?
Given back: n

Asked: Check the entry O=C1[C@@H](N2CC[C@H](c3ccc(O)cc3)[C@@H](F)C2)CCN1Cc1ccccc1 : does pKi equal or exceed 7?
Given back: n

Asked: Check the entry C[C@@H](c1ccc(F)cc1)N1CC[C@H](N2CC[C@H](c3ccc(O)cc3)[C@@H](F)C2)C1=O : does pKi equal or exceed 7?
Given back: n

###

target: NR2B-subtype NMDA receptors (Rattus norvegicus (Rat), UniProt P35439+Q00960)
procedure-summary: Radioligand binding assay (3H Ro 25-6981 competition, forebrain membranes)
experimental-parameters: 3H Ro 25-6981 (4 nM), read-out: NR2B Binding Ki
I'd appreciate it if you could supply Ki values for the items below.
Write the number in nM without appending the unit.

Asked: Recorded Ki for O=C1[C@@H](N2CC[C@@H](c3ccc(O)cc3)[C@H](F)C2)CCN1Cc1ccc(C(F)(F)F)cc1 , please?
Given back: 560

Asked: Recorded Ki for O=C1[C@@H](N2CCC(c3ccc(O)cc3)CC2)CCN1Cc1ccccc1 [Example 13a] , please?
Given back: 41

Asked: Recorded Ki for Cc1ccc(CN2CC[C@@H](N3CC[C@H](c4ccc(O)cc4)[C@@H](F)C3)C2=O)cc1F , please?
Given back: 3.4

The origin of these recorded values is patent US9221796B2.
